Test system: HOP-62 NSCLC
Test: NCI tumour cell line growth inhibition, 48 h
reported-endpoint: TGI

Reference set (4 entries):
NC(=O)CCC(NC(=O)OCc1ccccc1)C(=O)OCC(=O)c1ccccc1 (centres undefined): > 100 µM
NC(Cc1cc(I)c(O)c(I)c1)C(=O)O (centres undefined): > 500 µM
C/C(=N\NC(N)=O)C(CN1CCCCC1)C(c1ccccc1)c1c(O)c2ccccc2oc1=O (centres undefined): > 100 µM
CC(=O)O[C@H]1C#C/C=C\C#CC[C@@H]2C(=O)N(C(=O)OC(C)(C)C)[C@@H]12: 39.6 µM

Would you be so kind as to report TGI for each listed record?
1. COC(=O)C(=O)C1(CCC(C)=O)c2ccccc2-c2ccccc21
2. OC1CCCC1C(O)(C(F)(F)F)C(F)(F)F (centres undefined)
3. CCCCc1c2c(nc3c1CCc1cc4c(nc1-3)-c1nc3c(c(CCCC)c1CC4)CCC/C3=C\c1ccccc1)/C(=C/c1ccccc1)CCC2
4. Cc1cc2ccccc2n1CC(=O)NCC(C)C
5. COC(=O)C1=C(O)C(C(=O)OC)[C@@]2(O)[C@@H](C(=O)OC)C(c3ccc(OC(=O)/C(=C/c4ccc(Cl)cc4)c4ccc(Cl)cc4)cc3)C[C@@H]1[C@@H]2C(=O)OC (some centres undefined)

Output line:
1: > 100 µM; 2: > 100 µM; 3: > 100 µM; 4: > 100 µM; 5: > 100 µM

Would you be so kind as to report TGI for each listed record?
1. COc1ccc(C(=O)c2cc(OC)c(OC)c(OC)c2)cc1OC(C)=O
2. O=C(/C=C/c1ccc(C(F)(F)F)cc1)c1ccc(Nc2nc(NCCO)nc(NCCO)n2)cc1
3. CC(C)C[C@H](NC(=O)[C@H](CCc1ccccc1)NC(=O)CN1CCOCC1)C(=O)N[C@@H](Cc1ccccc1)C(=O)N[C@@H](CC(C)C)C(=O)[C@@]1(C)CO1
4. C=C(CN1CCN(c2ccccc2OC)CC1)c1ccc(C(=O)Nc2ccccc2N)cc1
5. CC1(O)C=CC2CCC1C2O (centres undefined)

Output line:
> 100 µM
7.99 µM
< 0.0229 µM
> 50 µM
> 100 µM

src = PubChem BioAssay (NCI)
